Assay: RP-TLC determination of chromatographic lipophilicity parameter RMW (Soczewiński–Wachtmeister extrapolation to pure water)
Format: physicochemical
Conditions: RP2F254 plates, ethanol–water mobile phase
measure: RMW

>  <compound>
CO[C@H]1C[C@@H]2CC[C@@H](C)[C@@](O)(O2)C(=O)C(=O)N2CCCC[C@H]2C(=O)O[C@H]([C@H](C)C[C@@H]2CC[C@@H](OCCO)[C@H](OC)C2)CC(=O)[C@H](C)/C=C(\C)[C@@H](O)[C@@H](OC)C(=O)[C@H](C)C[C@H](C)/C=C/C=C/C=C/1C [Everolimus, everolimus]

>  <measure>
RMW

>  <endpoint_value>
2.9460

$$$$
>  <compound>
CC(=O)NC[C@H]1CN(c2ccc(N3CCSCC3)c(F)c2)C(=O)O1 [Sutezolid, sutezolid]

>  <measure>
RMW

>  <endpoint_value>
1.4334

$$$$
>  <compound>
CO[C@H]1C[C@@H]2CC[C@@H](C)[C@@](O)(O2)C(=O)C(=O)N2CCCC[C@H]2C(=O)O[C@H]([C@H](C)C[C@@H]2CC[C@H](n3cnnn3)[C@H](OC)C2)CC(=O)[C@H](C)/C=C(\C)[C@@H](O)[C@@H](OC)C(=O)[C@H](C)C[C@H](C)/C=C/C=C/C=C/1C [Zotarolimus, zotarolimus]

>  <measure>
RMW

>  <endpoint_value>
3.3623

$$$$

[I] Nc1nc(-n2cc(C(=O)O)c(=O)c3cc(F)c(N4CC(O)C4)c(Cl)c32)c(F)cc1F [Delafloxacin, delafloxacin]
[II] CC(C)(O/N=C(\C(=O)N[C@@H]1C(=O)N2C(C(=O)[O-])=C(C[n+]3ccccc3)CS[C@H]12)c1csc(N)n1)C(=O)O [Ceftazidime, ceftazidime]
Of the two listed items, which has the higher RMW? First: I Second: II Write down the label attached to your selection.
I
(I: 0.9184, II: −0.6643)

---

Test: RP-TLC determination of chromatographic lipophilicity parameter RMW (Soczewiński–Wachtmeister extrapolation to pure water)
Assay type: physicochemical
Settings: RP18F254 plates, acetonitrile-water mobile phase
measure: RMW

// below: answered molecules
>  <molecular_string>
CO[C@H]1C[C@@H]2CC[C@@H](C)[C@@](O)(O2)C(=O)C(=O)N2CCCC[C@H]2C(=O)O[C@H]([C@H](C)C[C@@H]2CC[C@@H](OCCO)[C@H](OC)C2)CC(=O)[C@H](C)/C=C(\C)[C@@H](O)[C@@H](OC)C(=O)[C@H](C)C[C@H](C)/C=C/C=C/C=C/1C

>  <RMW>
2.9462

$$$$
>  <molecular_string>
CO[C@H]1C[C@@H]2CC[C@@H](C)[C@@](O)(O2)C(=O)C(=O)N2CCCC[C@H]2C(=O)O[C@H]([C@H](C)C[C@@H]2CC[C@H](n3cnnn3)[C@H](OC)C2)CC(=O)[C@H](C)/C=C(\C)[C@@H](O)[C@@H](OC)C(=O)[C@H](C)C[C@H](C)/C=C/C=C/C=C/1C

>  <RMW>
3.1252

$$$$
>  <molecular_string>
CC(=O)NC[C@H]1CN(c2ccc(N3CCSCC3)c(F)c2)C(=O)O1

>  <RMW>
2.2114

$$$$

[P] Nc1nc(-n2cc(C(=O)O)c(=O)c3cc(F)c(N4CC(O)C4)c(Cl)c32)c(F)cc1F
[Q] CC(C)(O/N=C(\C(=O)N[C@@H]1C(=O)N2C(C(=O)[O-])=C(C[n+]3ccccc3)CS[C@H]12)c1csc(N)n1)C(=O)O
# min-compare on RMW between P and Q When you have decided, please share the label of that item.
Q
(Q: 0.1462, P: 2.3174)

---

Assay: RP-TLC determination of chromatographic lipophilicity parameter RMW (Soczewiński–Wachtmeister extrapolation to pure water)
Format: physicochemical
Settings: RP18WF254 plates, propan-2-ol-water mobile phase
measure: RMW

Record excerpt, results attached:
>  <compound>
CO[C@H]1C[C@@H]2CC[C@@H](C)[C@@](O)(O2)C(=O)C(=O)N2CCCC[C@H]2C(=O)O[C@H]([C@H](C)C[C@@H]2CC[C@@H](OCCO)[C@H](OC)C2)CC(=O)[C@H](C)/C=C(\C)[C@@H](O)[C@@H](OC)C(=O)[C@H](C)C[C@H](C)/C=C/C=C/C=C/1C [Everolimus, everolimus]

>  <RMW>
2.5687

$$$$
>  <compound>
CO[C@H]1C[C@@H]2CC[C@@H](C)[C@@](O)(O2)C(=O)C(=O)N2CCCC[C@H]2C(=O)O[C@H]([C@H](C)C[C@@H]2CC[C@H](n3cnnn3)[C@H](OC)C2)CC(=O)[C@H](C)/C=C(\C)[C@@H](O)[C@@H](OC)C(=O)[C@H](C)C[C@H](C)/C=C/C=C/C=C/1C [Zotarolimus, zotarolimus]

>  <RMW>
2.7821

$$$$
>  <compound>
CC(=O)NC[C@H]1CN(c2ccc(N3CCSCC3)c(F)c2)C(=O)O1 [Sutezolid, sutezolid]

>  <RMW>
1.4784

$$$$

[a] Nc1nc(-n2cc(C(=O)O)c(=O)c3cc(F)c(N4CC(O)C4)c(Cl)c32)c(F)cc1F [Delafloxacin, delafloxacin]
[b] CC(C)(O/N=C(\C(=O)N[C@@H]1C(=O)N2C(C(=O)[O-])=C(C[n+]3ccccc3)CS[C@H]12)c1csc(N)n1)C(=O)O [Ceftazidime, ceftazidime]
Hi, I'm comparing two records. Which one has the lower RMW, a or b ? Refer to your chosen entry by its label in the reply.
b

---

Test: RP-TLC determination of chromatographic lipophilicity parameter RMW (Soczewiński–Wachtmeister extrapolation to pure water)
Type: physicochemical
Settings: RP2F254 plates, propan-2-ol-water mobile phase
measure: RMW

Known results for compounds:
>  <molecular_string>
CO[C@H]1C[C@@H]2CC[C@@H](C)[C@@](O)(O2)C(=O)C(=O)N2CCCC[C@H]2C(=O)O[C@H]([C@H](C)C[C@@H]2CC[C@H](n3cnnn3)[C@H](OC)C2)CC(=O)[C@H](C)/C=C(\C)[C@@H](O)[C@@H](OC)C(=O)[C@H](C)C[C@H](C)/C=C/C=C/C=C/1C

>  <RMW>
2.1522

$$$$
>  <molecular_string>
CC(=O)NC[C@H]1CN(c2ccc(N3CCSCC3)c(F)c2)C(=O)O1

>  <RMW>
1.1590

$$$$

[I] CO[C@H]1C[C@@H]2CC[C@@H](C)[C@@](O)(O2)C(=O)C(=O)N2CCCC[C@H]2C(=O)O[C@H]([C@H](C)C[C@@H]2CC[C@@H](OCCO)[C@H](OC)C2)CC(=O)[C@H](C)/C=C(\C)[C@@H](O)[C@@H](OC)C(=O)[C@H](C)C[C@H](C)/C=C/C=C/C=C/1C
[II] CC(C)(O/N=C(\C(=O)N[C@@H]1C(=O)N2C(C(=O)[O-])=C(C[n+]3ccccc3)CS[C@H]12)c1csc(N)n1)C(=O)O
[III] Nc1nc(-n2cc(C(=O)O)c(=O)c3cc(F)c(N4CC(O)C4)c(Cl)c32)c(F)cc1F
Would you mind ranking these compounds by ascending RMW? Reply with the labels, ordered as the question asks.
II, III, I
(II: −0.3642, III: 0.7390, I: 2.2145)

---

Experiment: RP-TLC determination of chromatographic lipophilicity parameter RMW (Soczewiński–Wachtmeister extrapolation to pure water)
Format: physicochemical
Settings: RP18F254 plates, propan-2-ol-water mobile phase
measure: RMW

Some solved entries appear below for comparison.
>  <molecular_string>
CO[C@H]1C[C@@H]2CC[C@@H](C)[C@@](O)(O2)C(=O)C(=O)N2CCCC[C@H]2C(=O)O[C@H]([C@H](C)C[C@@H]2CC[C@H](n3cnnn3)[C@H](OC)C2)CC(=O)[C@H](C)/C=C(\C)[C@@H](O)[C@@H](OC)C(=O)[C@H](C)C[C@H](C)/C=C/C=C/C=C/1C

>  <measure>
RMW

>  <endpoint_value>
2.4741

$$$$
>  <molecular_string>
CO[C@H]1C[C@@H]2CC[C@@H](C)[C@@](O)(O2)C(=O)C(=O)N2CCCC[C@H]2C(=O)O[C@H]([C@H](C)C[C@@H]2CC[C@@H](OCCO)[C@H](OC)C2)CC(=O)[C@H](C)/C=C(\C)[C@@H](O)[C@@H](OC)C(=O)[C@H](C)C[C@H](C)/C=C/C=C/C=C/1C

>  <measure>
RMW

>  <endpoint_value>
2.5865

$$$$
>  <molecular_string>
CC(=O)NC[C@H]1CN(c2ccc(N3CCSCC3)c(F)c2)C(=O)O1

>  <measure>
RMW

>  <endpoint_value>
1.5937

$$$$

[P] Nc1nc(-n2cc(C(=O)O)c(=O)c3cc(F)c(N4CC(O)C4)c(Cl)c32)c(F)cc1F
[Q] CC(C)(O/N=C(\C(=O)N[C@@H]1C(=O)N2C(C(=O)[O-])=C(C[n+]3ccccc3)CS[C@H]12)c1csc(N)n1)C(=O)O
Would you let me know which has the greater RMW value, P or Q ? Give the chosen item's label as your response.
P

Hello, the source for this data is paper PMC10059999, in case you need it.
